In this section, each of the compounds is paired with its reported IC50.
molecular target: Beta-1 adrenergic receptor (Cavia porcellus, UniProt B0FL73); assay: Inhibitory concentration against beta-1-adrenergic receptor in isolated guinea pig atria
Sequence (B0FL73 whole entry): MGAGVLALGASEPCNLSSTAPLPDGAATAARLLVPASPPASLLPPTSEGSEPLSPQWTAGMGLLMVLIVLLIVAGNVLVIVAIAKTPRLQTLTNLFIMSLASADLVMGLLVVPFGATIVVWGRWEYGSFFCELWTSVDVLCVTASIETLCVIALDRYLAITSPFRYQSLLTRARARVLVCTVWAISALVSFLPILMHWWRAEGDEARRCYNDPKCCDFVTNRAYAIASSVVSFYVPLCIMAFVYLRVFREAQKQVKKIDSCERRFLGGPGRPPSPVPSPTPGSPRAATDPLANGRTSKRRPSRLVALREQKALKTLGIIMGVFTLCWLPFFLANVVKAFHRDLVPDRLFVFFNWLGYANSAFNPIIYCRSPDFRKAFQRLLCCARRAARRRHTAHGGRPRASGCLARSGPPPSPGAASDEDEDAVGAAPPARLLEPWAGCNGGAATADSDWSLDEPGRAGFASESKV
Recorded metric: IC50 (µM)

> print(dat)
                                   compound                           measured.target  recorded.metric  units.label  value
1  CCCO/N=C/C(O)CNC(C)(C)C (centres undefined)  Beta-1 adrenergic receptor (Cavia porcellus, UniProt B0FL73)             IC50           µM   8.32
2   CCO/N=C/C(O)CNC(C)C (centres undefined)  Beta-1 adrenergic receptor (Cavia porcellus, UniProt B0FL73)             IC50           µM   12.3
3  CC(C)NCC(O)c1ccc(Cl)c(Cl)c1 (centres undefined) [DICHLOROISOPROTERENOL]  Beta-1 adrenergic receptor (Cavia porcellus, UniProt B0FL73)             IC50           µM  0.115
4  CC/C=N/OCC(O)CNC(C)(C)C (centres undefined)  Beta-1 adrenergic receptor (Cavia porcellus, UniProt B0FL73)             IC50           µM   26.3
5  CCCO/N=C/C(O)CNC(C)C (centres undefined)  Beta-1 adrenergic receptor (Cavia porcellus, UniProt B0FL73)             IC50           µM   15.5
6  C/C=N/OCC(O)CNC(C)(C)C (centres undefined)  Beta-1 adrenergic receptor (Cavia porcellus, UniProt B0FL73)             IC50           µM   13.5
7  CCO/N=C/C(O)CNC(C)(C)C (centres undefined)  Beta-1 adrenergic receptor (Cavia porcellus, UniProt B0FL73)             IC50           µM   13.8
8   C/C=N/OCC(O)CNC(C)C (centres undefined)  Beta-1 adrenergic receptor (Cavia porcellus, UniProt B0FL73)             IC50           µM   30.2
9  CC/C=N/OCC(O)CNC(C)C (centres undefined)  Beta-1 adrenergic receptor (Cavia porcellus, UniProt B0FL73)             IC50           µM   15.5

----------
target: Beta-2 adrenergic receptor (Cavia porcellus); assay: Inhibitory concentration against beta-2-adrenergic receptor in isolated guinea pig tracheal strips
Sequence (Q8K4Z4 whole entry): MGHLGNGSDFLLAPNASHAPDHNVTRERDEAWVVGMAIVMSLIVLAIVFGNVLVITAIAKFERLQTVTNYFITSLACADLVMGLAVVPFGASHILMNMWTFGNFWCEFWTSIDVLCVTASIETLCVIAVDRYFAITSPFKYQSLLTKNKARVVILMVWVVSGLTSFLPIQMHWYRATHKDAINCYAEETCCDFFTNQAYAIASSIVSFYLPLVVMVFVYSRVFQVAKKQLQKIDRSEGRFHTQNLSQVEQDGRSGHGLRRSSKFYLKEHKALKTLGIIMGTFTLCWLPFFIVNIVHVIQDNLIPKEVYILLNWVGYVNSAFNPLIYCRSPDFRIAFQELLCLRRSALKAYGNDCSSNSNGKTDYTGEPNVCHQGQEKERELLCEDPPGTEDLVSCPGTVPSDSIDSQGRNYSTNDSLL
Recorded metric: IC50 (µM)

> print(dat)
                                   molecule  value
1  CC/C=N/OCC(O)CNC(C)C (centres undefined)     12
2  CC/C=N/OCC(O)CNC(C)(C)C (centres undefined)   1.55
3  CCO/N=C/C(O)CNC(C)(C)C (centres undefined)  0.977
4  CCCO/N=C/C(O)CNC(C)C (centres undefined)   4.37
5  CCCO/N=C/C(O)CNC(C)(C)C (centres undefined)  0.269
6   CCO/N=C/C(O)CNC(C)C (centres undefined)   3.31
7  CC(C)NCC(O)c1ccc(Cl)c(Cl)c1 (centres undefined)  0.977
8  C/C=N/OCC(O)CNC(C)(C)C (centres undefined)   4.07
9   C/C=N/OCC(O)CNC(C)C (centres undefined)   12.9

----------
Catalogue of compounds with associated pKi
target: Beta-2 adrenergic receptor (Bos taurus)
Sequence (Q28044 whole entry): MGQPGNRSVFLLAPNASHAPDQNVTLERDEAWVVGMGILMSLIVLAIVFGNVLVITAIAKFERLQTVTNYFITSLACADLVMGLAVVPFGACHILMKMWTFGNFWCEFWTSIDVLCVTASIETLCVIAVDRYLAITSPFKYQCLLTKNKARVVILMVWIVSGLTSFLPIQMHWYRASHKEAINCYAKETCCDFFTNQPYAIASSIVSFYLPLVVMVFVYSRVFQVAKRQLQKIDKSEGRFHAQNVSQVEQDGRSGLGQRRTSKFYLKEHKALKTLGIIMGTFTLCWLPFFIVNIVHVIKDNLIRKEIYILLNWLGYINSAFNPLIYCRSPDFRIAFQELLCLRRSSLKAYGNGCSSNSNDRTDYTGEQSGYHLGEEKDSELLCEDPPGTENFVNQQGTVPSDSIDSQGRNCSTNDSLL
pKi: −log10 of the molar value.
Recorded metric: pKi

> print(dat)
                                   compound  recorded.metric  value
1  CC/C=N/OCC(O)CNC(C)(C)C (stereo unspecified)              pKi   5.90
2  CC/C=N/OCC(O)CNC(C)C (stereo unspecified)              pKi   5.34
3  CC(C)NCC(O)c1ccc(Cl)c(Cl)c1 (stereo unspecified)              pKi   6.85
4  C/C=N/OCC(O)CNC(C)C (stereo unspecified)              pKi   5.14
5  CCCO/N=C/C(O)CNC(C)C (stereo unspecified)              pKi   5.25
6  CCO/N=C/C(O)CNC(C)(C)C (stereo unspecified)              pKi   5.85

Each recorded value in this set is attributed to ChEMBL document CHEMBL1127515.
